The reported numbers originate from patent US20220387586A1.

- Experimental Target: T1, LAG3 on cells (recombinant CHO cells expressing Lag3) (human, UniProt P18627 29-525)
- T1 construct: The cell ELISA paragraphs say only 'Lag3'; also called CHO-LAG3; Lag3 cells
- T1 sequence: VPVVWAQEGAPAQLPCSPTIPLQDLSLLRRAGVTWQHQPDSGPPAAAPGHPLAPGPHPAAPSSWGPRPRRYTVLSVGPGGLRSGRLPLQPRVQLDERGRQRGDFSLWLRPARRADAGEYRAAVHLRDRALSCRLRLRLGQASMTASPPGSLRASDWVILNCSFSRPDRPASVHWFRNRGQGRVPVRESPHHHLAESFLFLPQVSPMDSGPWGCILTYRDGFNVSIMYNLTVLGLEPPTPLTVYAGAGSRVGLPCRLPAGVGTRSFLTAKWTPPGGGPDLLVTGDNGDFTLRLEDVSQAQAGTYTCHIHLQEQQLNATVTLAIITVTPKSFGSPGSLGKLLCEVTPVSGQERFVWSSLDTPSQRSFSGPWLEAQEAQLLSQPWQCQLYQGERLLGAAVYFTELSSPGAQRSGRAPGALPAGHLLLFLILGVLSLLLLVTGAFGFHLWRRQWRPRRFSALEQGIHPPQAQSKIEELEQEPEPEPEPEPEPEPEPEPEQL
- Method: cell ELISA on recombinant CHO cells expressing Lag3
Entries annotated with measured CHO-cell ELISA inflexion point
Assay Readout: CHO-cell ELISA inflexion point (ng/mL)

aLAG3(0411) (antibody, V domains shown, also called aLAG3 (411)) VH: EVHLLESGGGLVQPGGSLRLSCAASGFIVDDYTMNWVRQAPGKGLEWVSVISWDGGATYYADSVKGRFTISRDDFKNTLYLQMNSLRAEDTAVYYCAKGLTDDTLYGSDYWGQGTLVTVSS VL: DIQMTQSPSSLSASVGDRVTITCRASQSIVSYLNWYQQKPGKAPKLLIYASSSLQSGVPSRFSGSGSGTDFTLTISSLQPEDFATYYCQQTYSTPLTFGGGTKVEIK; 41.3
Reference LAG3 antibody MDX25F7 (antibody, V domains shown, also called MDX-25F7 (25F7); Medarex 25F7) VH: QVQLQQWGAGLLKPSETLSLTCAVYGGSFSDYYWNWIRQPPGKGLEWIGEINHNGNTNSNPSLKSRVTLSLDTSKNQFSLKLRSVTAADTAVYYCAFGYSDYEYNWFDPWGQGTLVTVSS VL: EIVLTQSPATLSLSPGERATLSCRASQSISSYLAWYQQKPGQAPRLLIYDASNRATGIPARFSGSGSGTDFTLTISSLEPEDFAVYYCQQRSNWPLTFGQGTNLEIK; 75
aLAG3(0416) (antibody, V domains shown) VH: EVQLVESGGGLVQPGGSLRLACAASGFTFSDYAMSWVRQAPGKGLEWVSGIDNSGYYTYYTDSVKGRFTISRDDVKNTLYLQMNSLRAEDTAVYLCTKTHSGLIVNDAFDIWGQGTMVTVSS VL: DIQLTQSPSSLSASVGDRVTITCRASQSISSYLNWYQQKPGKAPKLLIYDASSLESGVPSRFSGSGSGTDATLTISSLQPEDFATYYCQQSYSTPLTFGGGTKVEIKG; 37.2
aLAG3(0414) (antibody, V domains shown) VH: EVQLLESGGGLVQPGGSLRLSCAASGFIFDDYTMNWVRQAPGKGLEWVAVISWDGGGTYYTDSVKGRFTISRDDFKNTLYLQMNSLRAEDTAVYYCAKGLTDTTLYGSDYWGQGTLVTVSS VL: DIQMTQSPSSLSASVGDRVTITCRASQSISSYLNWYQQKPGKAPKLLIYAASTLQSGVPSRFSGSGSGTDFTLTISSLQPEDFATYYCQQTYSSPLTFGGGTKVEIKG; 48.1
